Measured viability at 28.5 h, 10 µM by item
assay: in vitro; settings: human, hela cells, % viability

>  <Compound>
Cc1[nH]nc(-c2ccc(O)c(C)c2O)c1Oc1ccc(F)cc1 [CBK264478]

>  <viability at 28.5 h, 10 µM, %>
124

$$$$
>  <Compound>
Cc1ccc(NC(=O)C(=O)NCCCN2CCOCC2)cc1Cl [CBK264806]

>  <viability at 28.5 h, 10 µM, %>
97.4

$$$$
>  <Compound>
Cc1nn(-c2ccccn2)c(C)c1[C@@H]1C=C[C@@H](NC(=O)CCC(=O)O)C1 [CBK289170]

>  <viability at 28.5 h, 10 µM, %>
81.9

$$$$
>  <Compound>
Cc1ccc(NS(=O)(=O)c2ccc(OC(F)(F)F)cc2)nc1 [CBK043577]

>  <viability at 28.5 h, 10 µM, %>
95.8

$$$$
>  <Compound>
CC(=O)Nc1ccc(-c2ccc(C(=O)NCc3cccnc3)cn2)cc1 [CBK158842]

>  <viability at 28.5 h, 10 µM, %>
96.9

$$$$
